- Species on record: Mus musculus
- protocol_notes: Activation of LXR in mouse 3T3L1 preadipocytes assessed as decrease in triglyceride level up to 10 uM […] measured on day 6 by Oil Red O staining based assay
- Assay type: cell-based
Activity calls are given as the source filed them. The rule behind the calls is not given here.
measurement_label: Activity

CC1(C)C[C@@H](O)C[C@]2(C)[C@@H]1[C@H](O)C[C@@]13C[C@@H](CC[C@H]12)[C@](C)(O)C3 | Active
Cc1c(CCO)c(CO)cc2c1C(=O)[C@H](C)[C@@H]2O | Active
CC1(C)C[C@@H](O)C[C@]2(C)[C@@H]1[C@H](O)C[C@@]13C[C@@](O)(CC[C@H]12)[C@](C)(O)C3 | Active
Cc1cc2c(c(C)c1CCO)C(=O)[C@@H](C)[C@@H]2O | Active
